self-cleavage reference
B1: HDV Ribozyme (parent)
chain: GGCCGGCAUGGUCCCAGCCUCCUCGCUGGCGCCGGCUGGGCAACAUUCCGAGGGGACCGUCCCCUCGGUAAUGGCGAAUGGGACCCA

variants of: B1; assay: self-cleavage, relative activity (ratio to wild type); higher = more cleavage; co-transcriptional
parameter: self-cleavage

>>> print(df.to_string())
    variant_annotation  recorded_number
 0           G31U G81C            0.208
 1           G34C C86G             0.19
 2            G5A A70C            0.166
 3           U37A A70C           0.0639
 4           G50A G80A            0.415
 5           C30G U60C            0.147
 6           C24U G54C            0.748
 7            C4G C30A           0.0601
 8           U23A G54U            0.937
 9            G5C C30A                0
10           A42C U47A           0.0594
11           G35C C48G            0.485
12           G54A C75G            0.185
13           C21A G55U           0.0554
14           C32A G76U            0.302
15           C13U A83C            0.344
16           C24A C32G            0.213
17            A8U G38C            0.095
18            C4A G55C             0.31
19           G25A U46C           0.0831
20            C7G C30G            0.119
21           U20G C32A                0
22           C22A G54C            0.281
23           C57U C62G             1.25
24           G29C A83C            0.142
25           U20A C66G            0.107
26            G2A C21A           0.0158
27           C36A A71C           0.0573
28           C22G G31U           0.0361
29           U12C G29U           0.0346
30           G50U U79A            0.831
31           C24G G28C            0.214
32           A45U C75G            0.133
33           G17U C64A            0.601
34           G25U A83G           0.0978
35           G31A C62U            0.554
36           U20G C64G            0.196
37            G6A U12C            0.277
38           G74A G80U            0.124
39           C32A G50U            0.178
40           G28U G39A           0.0256
41           G40A G81U            0.342
42           C49U C57U             1.18
43            C7U G73A            0.424
44           G29A A70G             0.17
45           G39C C44A            0.271
46            G6A A83U            0.324
47           C18U C36G            0.142
48           C24A G40C            0.117
49           G39A G52U            0.478
50           U65A U79A            0.727
51           U23G G50C            0.767
52           U37A G39C                0
53           C22A G82A           0.0767
54           U23C A70G             0.95
55           C22G G80U            0.142
56           C49U G82A            0.436
57           C22U C26U            0.847
58           A83G C86G            0.807
59            C3G G67A            0.682
60           U27G C58G             0.95
61           U23C G55C            0.914
62           A42C C85U            0.415
63           G31C A78U            0.148
64           C62G A78U            0.297
65           C19G G81A            0.117
66           A16C C57G            0.646
67           A56U G67U            0.988
68            G1A G25U           0.0462
69           C32U U65A             1.08
70            C3A C84A            0.391
71           C58U A83G            0.681
72           U79G C84G            0.185
73           G67A C86G            0.895
74           G25U A56C            0.122
75           G31C U37C           0.0707
76           C57A C64G            0.658
77           G28U U79G           0.0978
78           C22G A51G            0.104
79           C18U A77C            0.342
80           G31A A71C            0.251
81           C63A U69C             1.12
82           G25A C57G            0.224
83            G6C C26G            0.378
84           U23A U65G             1.18
85            A8C G31A            0.162
86           G11C A51C             0.35
87           U12G C18A            0.151
88           C13U C85U            0.332
89            A8G G17A            0.629
90           G17C C86U            0.237
